Attribution: ChEMBL document CHEMBL5331140

- experiment.notes: Ratio of unbound drug concentration in C57BL/6 mouse brain to plasma at 0.3 mg/kg, iv measured for 24 hrs by LC-MS/MS analysis
- Assay type: ADME, organism-based
- measurement.conditions: brain and plasma, read-out: K(p,uu,brain)
readout: Kp uu at 24 h
Write no unit; give the number alone.

[
  {
    "smiles.entry": "Nc1ncc(-c2cn(C34CC(F)(C3)C4)c([C@@H](O)C(F)(F)F)n2)cc1OC(F)(F)F",
    "result": 0.92
  }
]

Form: molecule = `Nc1ncc(-c2cn(C34CC(N5CCOCC5)(C3)C4)c(C3CC3)n2)cc1OC(F)(F)F` ; Kp uu at 24 h = 0.73

Form: molecule = `Nc1ncc(-c2cn(C34CC(N5CCOCC5)(C3)C4)c(C3CC3)n2)cc1C(F)(F)F` ; Kp uu at 24 h = 0.34

###

- experiment.notes: Thermodynamic aqueous solubility of compound in phosphate buffer at pH 7 incubated for 1 hr under shaking condition by LC-MS/MS analysis
- Format: physicochemical
- measurement.conditions: read-out: Therm_solubility
readout: solubility thermodynamic at 1 h (µM)
I only need the number, in µM, no unit after it.

Form: compound = `Nc1ncc(-c2cn(C34CC(F)(C3)C4)c([C@@H](O)C(F)(F)F)n2)cc1OC(F)(F)F` ; solubility thermodynamic at 1 h = 33

###

- experiment.notes: Plasma protein binding in human at 5 uM incubated for 5 hrs by rapid equilibrium dialysis method
- Format: ADME, cell-free
- measurement.conditions: read-out: PPB
readout: fraction unbound at 5 h, 5 µM

Form: compound = `Nc1ncc(-c2cn(C34CC(F)(C3)C4)c([C@@H](O)C(F)(F)F)n2)cc1OC(F)(F)F` ; fraction unbound at 5 h, 5 µM = 0.091

###

- experiment.notes: Thermodynamic aqueous solubility of compound in FeSSIF at pH 5 incubated for 1 hr under shaking condition by LC-MS/MS analysis
- Format: physicochemical
- measurement.conditions: read-out: Therm_solubility
readout: solubility thermodynamic at 1 h (µM)
I only need the number, in µM, no unit after it.

Form: compound = `Nc1ncc(-c2cn(C34CC(F)(C3)C4)c([C@@H](O)C(F)(F)F)n2)cc1OC(F)(F)F` ; solubility thermodynamic at 1 h = 152

###

- experiment.notes: Bioavailability in cynomolgus monkey at 1 mg/kg, po or 0.3 mg/kg, iv measured for 24 hrs by LC-MS/MS analysis
- Assay type: ADME, organism-based, Macaca fascicularis
- measurement.conditions: in vivo
readout: bioavailability

Form: compound = `Nc1ncc(-c2cn(C34CC(F)(C3)C4)c([C@@H](O)C(F)(F)F)n2)cc1OC(F)(F)F` ; bioavailability = > 100%

###

- experiment.notes: Metabolic stability in dog liver microsomes assessed as intrinsic clearance at 1 uM in presence of NADPH regenerating system measured for 45 mins by LC-MS/MS analysis
- Format: ADME, Canis lupus familiaris, Microsome
- measurement.conditions: read-out: CLH
readout: CLint scaled at 1 µM

Form: molecule = `Nc1ncc(-c2cn(C34CC(F)(C3)C4)c([C@@H](O)C(F)(F)F)n2)cc1OC(F)(F)F` ; CLint scaled at 1 µM = 12 mL/min/kg

###

- experiment.notes: Metabolic stability in human hepatocytes assessed as intrinsic clearance at 2 uM measured for 120 mins by LC-MS analysis
- Assay type: ADME, cell-based, Hepatocyte
- measurement.conditions: read-out: CLH
readout: CLint scaled at 2 µM (mL/min/kg)
I only need the number, in mL/min/kg, no unit after it.

Form: molecule = `Nc1ncc(-c2cn(C34CC(F)(C3)C4)c([C@@H](O)C(F)(F)F)n2)cc1OC(F)(F)F` ; CLint scaled at 2 µM = 11
